Test system: human Oct4 promoter
assayNotes: Oct4-luc luciferase reporter assay (stably transfected CV1 cells)
Assay type: cell-based
assayConditions: compound at 1 μM, Oct4-luc cells, triplicates; read-out: Oct4-luc fold Induction
This section presents compounds with their documented fold induction at 1 µM values.

COc1ccc(Cl)cc1C(=O)Nc1ccc2[nH]ncc2c1 ... 1.23
O=C(Nc1ccc2[nH]ccc2c1)c1ccccc1 [OAC2, N-(1H-indol-5-yl)benzamide] ... 3.6
O=C(Nc1ccc2[nH]ccc2c1)c1ccc(F)cc1 [OAC3, 4-fluoro-N-(1H-indol-5-yl)benzamide] ... 3.7
O=C(Nc1ccc2[nH]ncc2c1)c1cc(F)c(F)cc1Cl ... 1.15
O=C(CCCCC1SCC2NC(=O)NC21)NCc1ccc(C(=O)Nc2ccc3[nH]ncc3c2)cc1 (stereo not drawn) ... 0.91

Answer with reported fold induction at 1 µM of `COc1cc(C(=O)Nc2ccc3[nH]nnc3c2)cc(OC)c1OC`
1.05

Provide only the value of recorded fold induction at 1 µM for `Nc1ccc(C(=O)Nc2ccc3[nH]ncc3c2)cc1`
1.62

Return fold induction at 1 µM for the following compound: `CC(C)(C)OC(=O)Nc1ccc(C(=O)Nc2ccc3[nH]ncc3c2)cc1`
1.2

Note fold induction at 1 µM for the compound shown: `CC(C)(C)OC(=O)NCc1ccc(C(=O)Nc2ccc3[nH]ncc3c2)cc1`
0.97

Origin of the recorded values: patent US8962322B2
